Property: Screen- Human/No Protein; scope: individual molecules
tested_on: human vWF A1 domain (SEQ ID NO 5) (Homo sapiens, UniProt P04275, T1381A)
Sequence (P04275 with tags, fused parts or gaps T1381A): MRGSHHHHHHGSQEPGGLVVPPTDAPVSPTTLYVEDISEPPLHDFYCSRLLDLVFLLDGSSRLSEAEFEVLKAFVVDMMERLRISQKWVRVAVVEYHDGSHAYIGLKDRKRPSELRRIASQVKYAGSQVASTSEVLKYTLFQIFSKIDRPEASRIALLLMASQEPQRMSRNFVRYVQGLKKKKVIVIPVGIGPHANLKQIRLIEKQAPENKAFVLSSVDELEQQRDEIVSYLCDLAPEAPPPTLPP
test_protocol: 3-point dot blot screen, human vWF A1 domain
Type: binding
condition_details: rRfY aptamers; 100 nM human vWF A1 domain; ratio of fraction bound with target to fraction bound without target
From the text: When a significant positive ratio of binding of RNA in the presence of human or rabbit vWF A1 domain versus in the absence of protein was seen, the pools were cloned using the TOPO TA cloning kit (Invitrogen, Cat. #45-0641, Carlsbad, Calif.) according to the manufacturer's instructions. Round 9 and 12 pool templates were cloned and sequenced (125 total sequences), producing 48 unique clones. […]
Oligonucleotides are written 5' to 3', each unit as a sugar letter and its base; * is a phosphorothioate linkage, no mark a phosphodiester; rarer units and linkages stand in square brackets, end groups in braces. Plain capitals give the bases only. r = 2'-OH (RNA); f = 2'-fluoro
Give only the figure.

{"molecule": "AMX201.D10: rRfY aptamer clone (nucleic acid) rGrGrArGfCrGfCrAfCfUfCrArGfCfCrAfCrAfCfUrGrArGrGfCfUrGrGrAfUrAfUfCfUrAfCrGrArGrArGrGrArArGfUrGfCfUrGfCfUfUrGrGrAfUfUfUfCrGrAfCfCfUfCfUfCfUrGfCfUrArGfC", "Screen- Human/No Protein": 1.59}

Complete the entry with Screen- Human/No Protein for AMX201.D4: rRfY aptamer clone (nucleic acid) rGrGrArGfCrGfCrAfCfUfCrArGfCfCrAfCfUrGrGrGrGfCfUrGrAfUfCfUfCrGfCrAfCrGrAfUrArGfUfUfCrGfUrGfUfCrArArGrGrAfUrGfCrGfUfUfUfUfCrGrAfCfCfUfCfUfCfUrGfCfUrArGfC
2.23
